This collection of values is drawn from patent US20160228444A1.

test system: NCI-N87 gastric carcinoma cells; test: Median-effect drug interaction, Hoechst viability, 72 h; format: cell-based, human; settings: Homo sapiens, NCI-N87, NCI-N87, single agent, Table 2
MEASURED_PROPERTY: IC50 (µM)
Kindly answer with a numeric value in µM, unit omitted.

Challenge: For the molecule shown here, CCCC(CCC)C(=O)Nc1nc2c(ncn2COCCOC(=O)C(CCC)CCC)c(=O)[nH]1 , give the reported IC50.
Response given: 20

* * *

test system: NCI-N87 gastric carcinoma cells; assay: Median-effect drug interaction, Hoechst viability, 72 h; format: cell-based, human; conditions: Homo sapiens, NCI-N87, NCI-N87, single agent, Table 3
MEASURED_PROPERTY: pIC50
// returns pIC50 (minus log10 of molar concentration), number only

Challenge: Please state recorded pIC50 (tested on NCI-N87 gastric carcinoma cells) of CCCC(CCC)C(=O)Nc1nc2c(ncn2COCCOC(=O)C(CCC)CCC)c(=O)[nH]1 [AN446]
Response given: 4.70

* * *

system: MDA-231 cells; assay: Median-effect drug interaction, Hoechst viability, 72 h; format: cell-based, human; details: Homo sapiens, MDA-MB-231, MDA-231, single agent; read-out: Dox IC50
Counter-ions that a name gives are not always drawn.
MEASURED_PROPERTY: IC50 (nM)
Kindly answer with a numeric value in nM, unit omitted.

Challenge: For the molecule shown here, COc1cccc2c1C(=O)c1c(O)c3c(c(O)c1C2=O)C[C@@](O)(C(=O)CO)C[C@@H]3O[C@H]1C[C@H](N)[C@H](O)[C@H](C)O1 [Dox, Doxorubicin hydrochloride] , give the reported IC50.
Response given: 10.2

* * *

system: MDA-231 cells; assay: Median-effect drug interaction, Hoechst viability, 72 h; assay type: cell-based, human; details: Homo sapiens, MDA-MB-231, MDA-231, Dox in combination with AN446; read-out: Dox com IC50
Counter-ions that a name gives are not always drawn.
MEASURED_PROPERTY: IC50
Quick note: number first, unit second.

Challenge: For the molecule shown here, COc1cccc2c1C(=O)c1c(O)c3c(c(O)c1C2=O)C[C@@](O)(C(=O)CO)C[C@@H]3O[C@H]1C[C@H](N)[C@H](O)[C@H](C)O1 [Dox, Doxorubicin hydrochloride] , give the reported IC50.
Response given: 5.3 nM

* * *

test system: MDA-231 cells; assay: Median-effect drug interaction, Hoechst viability, 72 h; format: cell-based, human; details: Homo sapiens, MDA-MB-231, MDA-231, in combination with Dox; read-out: com IC50
MEASURED_PROPERTY: IC50 (µM)
Kindly answer with a numeric value in µM, unit omitted.

Challenge: Please state recorded IC50 (tested on MDA-231 cells) of CCCC(CCC)C(=O)Nc1nc2c(ncn2COCCOC(=O)C(CCC)CCC)c(=O)[nH]1
Response given: 17

* * *

test system: PBL; assay: Median-effect drug interaction, MTT viability, 72 h; type: cell-based; conditions: Homo sapiens, Dox in combination with SAHA, read-out: Dox com IC50
Counter-ions that a name gives are not always drawn.
MEASURED_PROPERTY: IC50 (nM)
Kindly answer with a numeric value in nM, unit omitted.

Challenge: Please state recorded IC50 (tested on PBL) of COc1cccc2c1C(=O)c1c(O)c3c(c(O)c1C2=O)C[C@@](O)(C(=O)CO)C[C@@H]3O[C@H]1C[C@H](N)[C@H](O)[C@H](C)O1 [Dox, Doxorubicin hydrochloride]
Response given: 20
